Record form. Attribute: Vd. Fill in for each entry.
- assay-name: Volume of distribution at steady state in Sprague-Dawley rat at 2 mg/kg, iv by LC-MS/MS analysis
- Format: ADME, organism-based
- Design: dose 2 mg/kg, route intravenous
- cond: in vivo, read-out: Vdss
Please make sure the unit comes right after the number.

Could you share which Vd value was measured for O=C(c1ccc(Oc2nccnc2N2CCC(O)CC2)cc1)c1nc2ccccc2[nH]1 ? 1.28 L/kg

Entry to check: CC(=O)N1CCN(c2nccnc2Oc2ccc(C(=O)c3nc4ccccc4[nH]3)cc2)CC1 0.165 L/kg

* * *

- assay-name: AUC in Sprague-Dawley rat at 5 mg/kg, po by LC-MS/MS analysis
- Format: ADME, organism-based
- Design: dose 5 mg/kg, route oral
- cond: plasma
recorded-endpoint: AUC
Please make sure the unit comes right after the number.

Could you share which AUC value was measured for CC(=O)N1CCN(c2nccnc2Oc2ccc(C(=O)c3nc4ccccc4[nH]3)cc2)CC1 ? 79.2 µM·h
